targetOfAssay: MC4-R (Homo sapiens, UniProt P32245)
Construct: expressed in transfected cells; host or cells: HEK-293
Sequence (P32245 whole entry): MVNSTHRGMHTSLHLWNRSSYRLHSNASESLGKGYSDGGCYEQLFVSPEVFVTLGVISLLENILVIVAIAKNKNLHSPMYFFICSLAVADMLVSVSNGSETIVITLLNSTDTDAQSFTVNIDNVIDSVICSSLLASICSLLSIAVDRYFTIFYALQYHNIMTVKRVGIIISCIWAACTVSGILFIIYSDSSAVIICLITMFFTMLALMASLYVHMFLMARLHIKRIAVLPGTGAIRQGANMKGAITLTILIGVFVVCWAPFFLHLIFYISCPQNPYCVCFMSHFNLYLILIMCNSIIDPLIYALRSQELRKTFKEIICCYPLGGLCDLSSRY
assayExplanation: Competitive binding assay: inhibition of 125I-NDP-α-MSH binding to HEK-293 membranes with cloned human receptor subtype 4
assaySetup: Table 6; 1 μM; mean of triplicate
Non-standard residues stand in square brackets, D forms with d. No end group written: not given here. *: point of attachment. Tiq = 1,2,3,4-tetrahydroisoquinoline-1-carboxylic acid; 2Nal = N[C@@H](Cc1ccc2ccccc2c1)C(=O)O; Hydrocinnamoyl = O=C(CCc1ccccc1)*
Output: class label from % Inhibition of Binding hMC4-R. Mapping: low interval (below 4%), middle interval (4% to below 40%), high interval (40% or more)

Look over these answered cases.
substance	discreteLabel
Ac-Nle-Arg-Ala-D-Nal 2′-Cys-Lys-NH2	middle interval
Nal 2′-D-Phe-Arg-Trp-Cys-NH2 ([2Nal][dF]RWC-NH2; also: metal complex)	middle interval
3′-Phenylpropionyl-D-Phe-Arg-Cys-Trp-NH2 (Hydrocinnamoyl-[dF]RCW-NH2; not fully specified; printed as 3′-Phenylpropionyl-D-Phe-Arg-Cys-Trp-NH2)	low interval
Tic-D-Nal-2′-Arg-Trp-Cys-NH2	high interval
Amb-D-Phe-Arg-Trp-Cys-NH2	low interval

Ask: Which category does the recorded % Inhibition of Binding hMC4-R put Tiq-D-Phe-Arg-Trp-Cys-NH2 (Tiq-[dF]RWC-NH2; also: metal complex) in?
Result: middle interval

Ask: Which category does the recorded % Inhibition of Binding hMC4-R put D-Nal 1′-D-Phe-Arg-Cys-Trp-NH2 in?
Result: middle interval

Ask: Which category does the recorded % Inhibition of Binding hMC4-R put Heptanoyl-Ser(Bzl)-D-Nal 2′-Gly-Trp-Cys-Lys-NH2 in?
Result: low interval

---

targetOfAssay: hMC2-R (Homo sapiens, UniProt P41968)
Construct: expressed in transfected cells; host or cells: HEK-293
Sequence (P41968 whole entry): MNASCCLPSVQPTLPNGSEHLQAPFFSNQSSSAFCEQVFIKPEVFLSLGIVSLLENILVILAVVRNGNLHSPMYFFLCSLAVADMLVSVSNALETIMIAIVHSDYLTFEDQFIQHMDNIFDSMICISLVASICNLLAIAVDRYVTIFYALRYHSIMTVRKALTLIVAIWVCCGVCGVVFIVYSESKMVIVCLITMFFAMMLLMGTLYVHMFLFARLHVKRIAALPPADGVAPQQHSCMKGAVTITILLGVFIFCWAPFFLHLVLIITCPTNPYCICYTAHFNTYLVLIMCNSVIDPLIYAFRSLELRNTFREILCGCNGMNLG
assayExplanation: Competitive binding assay of additional compounds, Table 6 hMC2-R
assaySetup: 1 μM, mean of triplicate
Non-standard residues stand in square brackets, D forms with d. No end group written: not given here. *: point of attachment. Hydrocinnamoyl = O=C(CCc1ccccc1)*; Nle = CCCC[C@H](N)C(=O)O
measurementKind: % Inhibition of Binding hMC2-R (%)
Numeric answer only, unit % assumed.

# example entries with known answers
substance	targetOfAssay	measurementKind	valueUnit	quantitativeReadout
Idc-D-Phe-Arg-Cys-Trp-NH2	hMC2-R (Homo sapiens, UniProt P41968)	% Inhibition of Binding hMC2-R	%	0
Ac-Nle-Ala-Glu-D-Phe-Arg-Cys-Trp-NH2 (Ac-[Nle]AE[dF]RCW-NH2; not fully specified; printed as Ac-Nle-Ala-Glu-D-Phe-Arg-Cys-Trp-NH2)	hMC2-R (Homo sapiens, UniProt P41968)	% Inhibition of Binding hMC2-R	%	3
Pro-D-Phe-Arg-Cys-Trp-NH2 (P[dF]RCW-NH2; also: metal complex)	hMC2-R (Homo sapiens, UniProt P41968)	% Inhibition of Binding hMC2-R	%	0

Ask: Requested read-out: % Inhibition of Binding hMC2-R. Entry: 3′-Phenylpropionyl-His-D-Phe-Arg-Cys-Trp-NH2 (Hydrocinnamoyl-H[dF]RCW-NH2; not fully specified; printed as 3′-Phenylpropionyl-His-D-Phe-Arg-Cys-Trp-NH2)
Result: 2

Ask: Requested read-out: % Inhibition of Binding hMC2-R. Entry: D-Nal 2′-D-Phe-Arg-Cys-Trp-NH2
Result: 7

Ask: Requested read-out: % Inhibition of Binding hMC2-R. Entry: D-Tiq-D-Phe-Arg-Trp-Cys-NH2
Result: 0

Ask: Requested read-out: % Inhibition of Binding hMC2-R. Entry: Allo-Thr-D-Phe-Arg-Trp-Cys-NH2
Result: 0

Data origin: patent US7307063B2
